system: Human immunodeficiency virus 1; assay: Inhibitory concentration against 181C mutant was determined; format: functional, organism-based; details: Human immunodeficiency virus 1; read-out: IC50
pIC50: −log10 of the molar value.
Outcome: class 1 for pIC50 of at least 6; class 0 for anything lower.

Cc1cc(C)c(S(=O)(=O)c2nc(Nc3ccc(C#N)cc3)c(=O)n(C)c2C)c(C)c1: class 1
Cc1cc(C)c(S(=O)(=O)c2cn(C)c(=O)c(Nc3ccc(C#N)cc3)n2)c(C)c1: class 1
Cc1ccccc1Sc1nc(Nc2ccc(C#N)cc2)c(=O)n(C)c1C: class 0
Cc1cc(C)c(Sc2cn(C)c(=O)c(Nc3ccc(Cl)cc3)n2)c(C)c1: class 0
Cc1ccccc1Oc1cn(C)c(=O)c(Nc2ccc(C#N)cc2)n1: class 0
Cc1ccc(Oc2nc(Nc3ccc(Cl)cc3)c(=O)n(C)c2C)c(C)c1: class 0

Textbook exercise: given the entry "Cc1cc(C#N)cc(C)c1Oc1nc(Nc2ccc(C#N)cc2)c(=O)n(C)c1C" , state whether its pIC50 is greater than or equal to 6. class 1

Repeat with "Cc1ccc(Oc2nc(Nc3ccc(C#N)cc3)c(=O)n(C)c2C)c(C)c1" class 1

Repeat with "Cc1ccccc1Sc1nc(Nc2ccc(C#N)cc2)c(O)nc1C" class 0

* * *

tested on: Human immunodeficiency virus 1; assay: Inhibitory concentration against wild-type HIV-1 LAI Virus was determined; assay type: functional, organism-based; conditions: Human immunodeficiency virus 1; read-out: IC50
MEASURE: pIC50
Bear in mind: pIC50 is minus log10 of a mol/L concentration; give just that figure.

Cc1ccccc1Oc1nc(Nc2ccc(Cl)cc2)c(=O)n(C)c1C: 7.00

Would you mind telling me what pIC50 value was observed for "Cc1ccccc1Oc1cn(C)c(=O)c(Nc2ccc(C#N)cc2)n1" ? 8.40

Repeat with "Cc1ccc(Oc2cn(C)c(=O)c(Nc3ccc(C(F)(F)F)cc3)n2)c(C)c1" 6.30

Repeat with "Cc1cc(C)c(Sc2cn(C)c(=O)c(Nc3ccc(C#N)cc3)n2)c(C)c1" 7.80

Repeat with "Cc1ccc(Oc2nc(Nc3ccc(Cl)cc3)c(=O)n(C)c2C)c(C)c1" 6.90

Repeat with "Cc1ccccc1Sc1nc(Nc2ccc(C#N)cc2)c(=O)n(C)c1C" 7.40

Repeat with "Cc1ccc(Oc2nc(Nc3ccc(C#N)cc3)c(=O)n(C)c2C)c(C)c1" 8.52

Repeat with "Cc1ccc(Sc2cn(C)c(=O)c(Nc3ccc(C#N)cc3)n2)c(C)c1" 8.30

Repeat with "Cc1ccccc1Sc1cn(C)c(=O)c(Nc2ccc(C#N)cc2)n1" 7.70

Repeat with "Cc1ccc(Sc2nc(Nc3ccc(Cl)cc3)c(=O)n(C)c2C)c(C)c1" 6.30

* * *

test system: Human immunodeficiency virus 1; assay: Inhibitory concentration against wild-type HIV-1 LAI Virus was determined; assay type: functional, organism-based; settings: Human immunodeficiency virus 1; read-out: IC50
Flag rule - IC50 less than 0.006 µM flags criterion met; the remaining entries get criterion not met.

Solved cases (2 shown):
Cc1ccc(Oc2cn(C)c(=O)c(Nc3ccc(Cl)cc3)n2)c(C)c1: criterion not met
Cc1ccc(Oc2cn(Cc3ccccc3)c(=O)c(Nc3ccc(C#N)cc3)n2)c(C)c1: criterion not met

Please let me know if "Cc1cc(C)c(Oc2nc(Nc3ccc(C#N)cc3)c(=O)n(C)c2C)c(C)c1" shows IC50 below 0.006 µM. criterion met

Repeat with "Cc1cc(C)c(S(=O)(=O)c2nc(Nc3ccc(C#N)cc3)c(=O)n(C)c2C)c(C)c1" criterion met

Repeat with "Cc1ccccc1Oc1cn(Cc2ccccc2)c(=O)c(Nc2ccc(C#N)cc2)n1" criterion not met

Repeat with "Cc1ccccc1Sc1nc(Nc2ccc(C#N)cc2)c(O)nc1C" criterion not met
